Experiment: NCI Yeast Anticancer Drug Screen. Data for the rad18 strain (AID 177)
Settings: S. cerevisiae rad18 mutant growth inhibition; at 100.0 µM; stronger effect = higher value
Protocol: Growth inhibition of yeast strains with defined genetic alterations is measured as a screen for potential anti-cancer activity. Selected strains with alterations in DNA damage repair or cell cycle control were exposed to compounds and growth inhibition was measured relative to vehicle treated controls. The strain used in this assay is rad18
Compounds without any hit were thinned out: in the full panel of roughly 79,000, 15% have a hit.
Give measured growth inhibition for each item. Keep answers brief.
The answer is to be given in %; state only the numeric part.

Item: CNC(=O)OCc1c(COC(=O)NC)c(-c2ccc(Cl)c(Cl)c2)n2c1CCC2 | growth inhibition: 97

Item: CC(/C=C/c1ccc2c(c1)OCO2)[N+](=O)[O-] (stereo unspecified) | growth inhibition: 99

Item: Cc1ccc(CSC(N)=Nc2ccccc2)cc1C | growth inhibition: 31

Item: O=C1c2ccccc2-c2n[nH]c3cccc1c23 | growth inhibition: 50

Item: CC(C)(C)c1nc2c(o1)C(=O)c1ccccc1C2=O | growth inhibition: 95

Item: NC(N)=N/N=C\c1c2ccccc2cc2ccccc12 | growth inhibition: 95

====

Test: NCI Yeast Anticancer Drug Screen. Data for the rad50EPP+ strain (AID 151);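 note: 0% = growth of vehicle-treated control cultures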
Details: S. cerevisiae rad50 mutant strain, at 33.0 µM, stronger effect = higher value
Description: Growth inhibition of yeast strains with defined genetic alterations is measured as a screen for potential anti-cancer activity. Selected strains with alterations in DNA damage repair or cell cycle control were exposed to compounds and growth inhibition was measured relative to vehicle treated controls. The strain used in this assay is rad50EPP+
The panel holds about 79,000 compounds, 15% with a hit somewhere; the sample as a whole holds those more often. Calls of active or inactive are those of the source. Cut-off read from the data, not from the text of the source: active = growth inhibition above about 70%; inactive = the rest.
Attribute Measured: growth inhibition

Item: Nc1ccc2c(c1)C(=O)c1cccc(N)c1C2=O | growth inhibition: 97% (active)

Item: N/C(=N\OC(=O)NC(Cl)=C(Cl)Cl)c1cc(C(F)(F)F)cc(C(F)(F)F)c1 | growth inhibition: -35% (inactive)

Item: COc1cc(C2SCC(=O)N2c2nnc(C(F)(F)F)s2)cc(OC)c1OC (stereo unspecified) | growth inhibition: -2% (inactive)

Item: COc1ccc(C2c3cc4c(cc3OC(C)(O)C2C)OCO4)c(OC)c1 (stereo unspecified) | growth inhibition: 7% (inactive)

Item: Cc1cc2c(cc1C(=O)CCC(=O)O)CC1(C2)Cc2cc(C)c(C(=O)CCC(=O)O)cc2C1 | growth inhibition: 15% (inactive)

Item: COC(=O)CSSCc1ccc([N+](=O)[O-])cc1 | growth inhibition: 93% (active)

Item: CN(Cc1cnc2nc(N)nc(N)c2n1)c1ccc(C(=O)N[C@@H](CCC(=O)O)C(=O)O)cc1 | growth inhibition: 1% (inactive)

Item: COC(=O)C1=C(C)NC(C)=C(C(=O)OCCCN2CCC(c3ccccc3)(c3ccccc3)CC2)C1c1cccc([N+](=O)[O-])c1 (stereo unspecified) | growth inhibition: 92% (active)

Item: O=C(O)c1cccc(-c2c3ccc(=O)cc-3oc3cc(O)ccc23)c1 | growth inhibition: -2% (inactive)

Item: CCCCCCCCCC/C=C\C(=O)O | growth inhibition: 62% (inactive)

Item: CCCN(CCC)CC(O)c1cc(-c2ccc(Cl)cc2)nc2c(C)c(Cl)ccc12 (stereo unspecified) | growth inhibition: 96% (active)

Item: CNC1C(OC2C(OC3C(O)C(O)C(N=C(N)N)C(O)C3N=C(N)N)OC(C)C2(O)CO)OC(CO)C(O)C1O (stereo unspecified) | growth inhibition: -3% (inactive)

Item: CCC/C(Cl)=N\OC(=O)Nc1ccc(Br)cc1 | growth inhibition: 77% (active)

Item: Cc1nn(-c2cc(Cl)ccc2[N+](=O)[O-])c(C)c1Cl | growth inhibition: 19% (inactive)

Item: O=C1c2cc([N+](=O)[O-])ccc2-c2cccc(F)c21 | growth inhibition: 69% (inactive)

Item: Clc1cccc(C(Nc2nncs2)Nc2nncs2)c1Cl | growth inhibition: 47% (inactive)

Item: O=C1C2C(C(=O)N1c1ccc(OCc3ccccc3)cc1)C1c3ccccc3C2C2CCCCN21 (stereo unspecified) | growth inhibition: 1% (inactive)

Item: CCCCCCCCCCCCCCCCCCN(C)CC(COP(=O)([O-])OCC[N+](C)(C)C)OC (stereo unspecified) | growth inhibition: 98% (active)

Item: CN(C)c1nc2sc3c(c2c(=O)o1)CCCC3 | growth inhibition: 23% (inactive)

Item: O=C(c1cc(Br)ccc1O)c1cc(Br)ccc1O | growth inhibition: 99% (active)

Item: COc1ccccc1/C=C1\Sc2scc(-c3cccc([N+](=O)[O-])c3)[n+]2C1=O | growth inhibition: 96% (active)

====

assay: NCI Yeast Anticancer Drug Screen. Data for the rad50EPP+ strain (AID 151);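 note: 0% = growth of vehicle-treated control cultures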; settings: S. cerevisiae rad50 mutant strain, at 100.0 µM, stronger effect = higher value
Compounds without any hit were thinned out: in the full panel of roughly 79,000, 15% have a hit.
Attribute Measured: growth inhibition (%)
The answer is to be given in %; state only the numeric part.

Item: O=C(/C=C/c1cccc(Br)c1)c1cccs1 | growth inhibition: 85

Item: O=C(NNc1ccnc2cc(Cl)ccc12)/C(=C\c1ccccc1Cl)NC(=O)c1ccccc1 | growth inhibition: 89

Item: COc1cc(C2c3cc4c(cc3OC(NNc3ccccc3)C2C)OCO4)cc(OC)c1OC (stereo not given) | growth inhibition: 67

Item: CCN(CC)C(C)(C)C(=O)/C=C/c1ccccc1 | growth inhibition: 5

Item: CCOC(=O)c1cnc2c(C(F)(F)F)cccc2c1N=[N+]=[N-] | growth inhibition: 97

Item: CCOC(=O)C1=C(C(=O)c2ccccc2)C(c2ccccc2[N+](=O)[O-])C(C(=O)c2ccccc2)=C(C(=O)OCC)N1 | growth inhibition: 27

Item: CCOP(=O)(OCC)C(Cc1ccccc1)N=C(c1ccccc1)c1ccccc1 (stereo not given) | growth inhibition: 94

Item: N#Cc1ccc(C2NN=CC23C(=O)c2ccccc2OC3c2ccccc2)cc1 (stereo not given) | growth inhibition: 3

Item: Cc1cc(I)ccc1N | growth inhibition: 74

Item: [O-][n+]1c2ccc(O)cc2nc2ccc(Cl)cc21 | growth inhibition: 56

Item: CN(C)c1ccc(C(C#N)=C(C#N)C#N)cc1 | growth inhibition: 50

Item: [N-]=[N+]=NC1=C(c2ccccn2)C(=O)c2cccc3cccc1c23 | growth inhibition: 93

Item: N#Cc1c(N)[nH]c2ccc(Sc3ccccc3)cc12 | growth inhibition: 51

Item: CCC(=O)Oc1c(Cl)cc(Cl)c2ccccc12 | growth inhibition: 49

Item: CNC1C(OC2C(OC3C(O)C(O)C(N=C(N)N)C(O)C3N=C(N)N)OC(C)C2(O)CO)OC(CO)C(O)C1O (stereo not given) | growth inhibition: -10

Item: CCCCCCCCCCCCCCCCCCNC | growth inhibition: 89

Item: O=C1c2ccccc2-c2n[nH]c3cccc1c23 | growth inhibition: 73

Item: CC(=O)OC1CCC2(C)C(=CCC3C4CCC5(OC6CC(C)CN(C(C)=O)C6C5C)C(C)=C4C(=O)C32)C1 (stereo not given) | growth inhibition: -1

Item: O=C(CC(=O)n1nc(-c2ccccc2)c(N=Nc2ccccc2C(=O)O)c1-c1ccccc1)Nc1ccc(Cl)cc1 | growth inhibition: 37

Item: NC(N)=N/N=C\c1c2ccccc2cc2ccccc12 | growth inhibition: 23

Item: CCN(CC)CC[n+]1ccc2c(C)c3[nH]c4ccc(O)cc4c3c(C)c2c1 | growth inhibition: 91

Item: COc1ccc(OC)c2cc3ccccc3cc12 | growth inhibition: 60

Item: CC(C)NC(=O)OCc1c(COC(=O)NC(C)C)c(-c2ccc(Cl)c(Cl)c2)n2c1CCC2 | growth inhibition: -4

Item: C(CCSC1=NCCN1)CSC1=NCCN1 (tested in a mixture with another compound) | growth inhibition: 99

Item: O=C(CCCN1CCC2(CC1)CC(=O)N(N1CCCCCC1)C2=O)c1ccc(F)cc1 | growth inhibition: 0

Item: O=[N+]([O-])c1cc(CCl)ccc1CCl | growth inhibition: 98

Item: BrCc1cccc2ccc3cccc(CBr)c3c12 | growth inhibition: 24

Item: c1ccc(-c2ccnc3c2ccc2c(-c4ccccc4)ccnc23)cc1 | growth inhibition: 97

Item: CC(C)(CN1CCCCC1)C(=O)CC(SCCS(=O)(=O)O)c1ccc(Br)cc1 (stereo not given) | growth inhibition: 14

Item: Cc1ccc2ccc3cccc4ccc1c2c34 | growth inhibition: 31

Item: CC(=O)SCCC[Si](C)(C)CCCSC(C)=O | growth inhibition: 20

Item: CC1OCC2OC(C)OC(C3C4=C(CC(C)(C)CC4=O)OC4=C3C(=O)CC(C)(C)C4)C2O1 (stereo not given) | growth inhibition: 1

Item: O=C1CSC(/C=C/c2ccccc2)N1c1ccc(-c2ccc(-n3c(-c4ccccc4)nc4ccccc4c3=O)cc2)cc1 (stereo not given) | growth inhibition: 29

Item: O=C1c2ccccc2C(=O)c2c(NC3CCCCC3)ccc(Nc3ccc(S(=O)(=O)O)cc3)c21 | growth inhibition: 63

Item: CC(=O)[O][Bi]([c]1ccccc1)[c]1ccccc1 | growth inhibition: 24

Item: CCCCN1C(=O)N(c2ccc(OCC)cc2)C2N(CCCC)C1C(C)(C)C2(C)C (stereo not given) | growth inhibition: 30

Item: C/C(=N\NC(=S)SCc1ccccc1)c1ccccn1 | growth inhibition: 92

Item: CSC(=S)Nc1cccc(C)n1 | growth inhibition: 68

Item: OC1CCCc2c1cc1ccc3cccc4ccc2c1c34 (stereo not given) | growth inhibition: 62

Item: CCOC(=O)c1cc(-c2ccc(Cl)cc2)c([N+](=O)[O-])n1C | growth inhibition: 93

Item: CC(Br)C(=O)c1ccc2cc(Br)c3ccccc3c2c1 (stereo not given) | growth inhibition: 39

Item: CN(C)CCn1c2c3ccccc3ccc2c2oc(=O)c3ccccc3c21 | growth inhibition: 94

Item: CCCCCCCCCCCC(=O)N(C)C | growth inhibition: 90

Item: COC(=O)c1ccc(NCC2=CC(=O)C=CC2=O)cc1O | growth inhibition: 92

Item: O=C(N=Nc1ccccc1Cl)NNc1ccccc1Cl | growth inhibition: 20
